- System: XIP peptide (Xip251-270) binding
- run_description: small-molecule binders of XIP peptide, primary screen, biochemical, small-molecule microarray, fluorescence 635/667 nm, 0.1 µg/mL protein (AID 1182)
- experimental_conditions: fluorescent protein binding, 635 nm, higher = more signal, called active from +8 up or from −8 down
Recorded measurements of composite z-score, one per entry
experimental_endpoint: composite z-score

[[record]]
compound = "CC(CCN1CCc2nc(-c3ccccc3)c(-c3ccccc3)cc2C1)=NO[C@@H](C)c1cn([C@H](CO)Cc2ccccc2)nn1"
measurement_target = "XIP peptide (Xip251-270) binding"
readout_value = -0.416

[[record]]
compound = "CC(C)NC(=O)[C@@H]1c2ccccc2C(=O)N(CC23CC4CC(CC(C4)C2)C3)[C@H]1c1ccc(CO)cc1"
measurement_target = "XIP peptide (Xip251-270) binding"
readout_value = 0.166

[[record]]
compound = "COc1cccc([C@H]2Oc3ccc(OC)cc3C(=NO[C@H](C)c3cn([C@@H]4COC[C@H]4O)nn3)[C@@H]2O)c1"
measurement_target = "XIP peptide (Xip251-270) binding"
readout_value = 0.0524

[[record]]
compound = "COCCOC(=O)N1C(=O)[C@@]2(c3ccccc31)[C@H](C(N)=O)[C@H]1C(=O)O[C@H](c3ccccc3)[C@H](c3ccccc3)N1[C@@H]2c1ccccc1OCCO"
measurement_target = "XIP peptide (Xip251-270) binding"
readout_value = 3

[[record]]
compound = "CCOC(=O)[C@H](CC(C)C)NC(=O)CCC1CC(OC(=O)NCc2cccc3ccccc23)CC2(CCCC(COC(=O)NCCc3ccccc3OC)O2)O1 (stereo not given in full)"
measurement_target = "XIP peptide (Xip251-270) binding"
readout_value = 1.05

[[record]]
compound = "CO[C@@H]1COC(=O)CCC[C@@H](C)[C@H](OC)COC(=O)CCC[C@H]1C"
measurement_target = "XIP peptide (Xip251-270) binding"
readout_value = -0.201

[[record]]
compound = "O=C1[C@H]2[C@H]3[C@H](O)[C@H](O)CC(=NO[C@@H]4O[C@H](CO)[C@@H](O)[C@H](O)[C@H]4O)[C@H]3CC[C@H]2C(=O)N1Cc1ccc2c(c1)OCO2"
measurement_target = "XIP peptide (Xip251-270) binding"
readout_value = -0.0799

[[record]]
compound = "C=CCC(OC(C)=O)[C@@H]1[C@@H](N(Cc2cc3ccccc3o2)C(=O)Cc2ccc(F)cc2)c2cc(OCCCO)ccc2N1C(=O)Cc1ccc(OC)cc1 (stereo not given in full)"
measurement_target = "XIP peptide (Xip251-270) binding"
readout_value = -0.386

[[record]]
compound = "CCc1cc2c(nc1CC)CCN(CCC(C)=NOC(C)CN1CCCc3nc(C)c(C)cc31)C2 (stereo not given)"
measurement_target = "XIP peptide (Xip251-270) binding"
readout_value = 1.36

[[record]]
compound = "CC(=O)OC[C@H]1O[C@H](C#CCCCc2ccccc2)C=C[C@@H]1OC(C)=O"
measurement_target = "XIP peptide (Xip251-270) binding"
readout_value = 1.05

